Assay: cells
Details: Mus musculus, BaF3, 3 h
experimentalReadout: IC50 (nM)
One number for each entry, in nM.

Check out these entries, answers already filled in.
compound="Cc1nc(Nc2ncc(C(=O)Nc3c(C)cccc3Cl)s2)cc(N2CCN(CCO)CC2)n1 [DASATINIB ANHYDROUS]" unitannotation=nM reportedmeasurement=10
compound=Cc1ccc(NC(=O)c2ccc(CN3CCN(C)CC3)cc2)cc1Nc1nccc(-c2cccnc2)n1 unitannotation=nM reportedmeasurement=3100

# ---- query compound ----
Determine from records and report IC50 for `Cc1cn(-c2cc(NC(=O)c3ccc(C)c(Nc4nccc(-c5cccnc5)n4)c3)cc(C(F)(F)F)c2)cn1`
43

----------
Assay: cells
Conditions: Mus musculus, BaF3, 3 h
Exercise: for every item that follows, state its recorded IC50.

compound=Cc1cn(-c2cc(NC(=O)c3ccc(C)c(Nc4nccc(-c5cccnc5)n4)c3)cc(C(F)(F)F)c2)cn1 reportedmeasurement="155 nM"
compound="Cc1nc(Nc2ncc(C(=O)Nc3c(C)cccc3Cl)s2)cc(N2CCN(CCO)CC2)n1 [DASATINIB ANHYDROUS]" reportedmeasurement="< 10 nM"

Determine from records and report IC50 for `Cc1ccc(NC(=O)c2ccc(CN3CCN(C)CC3)cc2)cc1Nc1nccc(-c2cccnc2)n1`
> 5000 nM

----------
Test: cells
Conditions: Mus musculus, BaF3, 3 h
Exercise: for every item that follows, state its recorded IC50.
Numbers only, in nM.

compound="Cc1nc(Nc2ncc(C(=O)Nc3c(C)cccc3Cl)s2)cc(N2CCN(CCO)CC2)n1 [DASATINIB ANHYDROUS]" experimentalreadout=IC50 reportedmeasurement=10
compound=Cc1ccc(NC(=O)c2ccc(CN3CCN(C)CC3)cc2)cc1Nc1nccc(-c2cccnc2)n1 experimentalreadout=IC50 reportedmeasurement=5000

# ---- query compound ----
Determine from records and report IC50 for `Cc1cn(-c2cc(NC(=O)c3ccc(C)c(Nc4nccc(-c5cccnc5)n4)c3)cc(C(F)(F)F)c2)cn1`
70

----------
Test: cells
Settings: Mus musculus, BaF3, 3 h
pIC50: −log10 of the molar value.
experimentalReadout: pIC50

molecule=Cc1cn(-c2cc(NC(=O)c3ccc(C)c(Nc4nccc(-c5cccnc5)n4)c3)cc(C(F)(F)F)c2)cn1 experimentalreadout=pIC50 reportedmeasurement="< 5.30"

Hi, could you look up pIC50 for each item in my list?
1. Cc1nc(Nc2ncc(C(=O)Nc3c(C)cccc3Cl)s2)cc(N2CCN(CCO)CC2)n1 [DASATINIB ANHYDROUS]
2. Cc1ccc(NC(=O)c2ccc(CN3CCN(C)CC3)cc2)cc1Nc1nccc(-c2cccnc2)n1

1. < 6.00
2. < 5.30

----------
Test: Inhibition of BCR-ABL F311L mutant (unknown origin) expressed in mouse BaF3 cells assessed as inhibition of cell growth incubated for 72 hrs by […] CellTiter96 viability analysis
Conditions: BaF3, 72 h
experimentalReadout: pIC50
Numbers only, as −log10 of the molar value.

Hi, could you look up pIC50 for each item in my list?
1. Cc1nc(Nc2ncc(C(=O)Nc3c(C)cccc3Cl)s2)cc(N2CCN(CCO)CC2)n1 [DASATINIB ANHYDROUS]
2. Cc1cn(-c2cc(NC(=O)c3ccc(C)c(Nc4nccc(-c5cccnc5)n4)c3)cc(C(F)(F)F)c2)cn1
3. Cc1ccc(NC(=O)c2ccc(CN3CCN(C)CC3)cc2)cc1Nc1nccc(-c2cccnc2)n1

8.89
7.64
6.32
